- target.under.test: UniProtKB P08581
- procedure.summary: HGF induced c-MET phosphorylation
- Type: cell-based
assay.endpoint: IC50

Which IC50 value belongs to O=C1NC(=O)[C@@H](c2cn3c4c(cccc24)CCC3)[C@@H]1c1c[nH]c2ccccc12 [Tivantinib] ? > 1000 nM

====

- target.under.test: UniProt:P08581
- procedure.summary: HGF induced c-MET phosphorylation
- Type: cell-based
pIC50: −log10 of the molar value.
assay.endpoint: pIC50

Which pIC50 value belongs to O=C1NC(=O)[C@@H](c2cn3c4c(cccc24)CCC3)[C@@H]1c1c[nH]c2ccccc12 [Tivantinib] ? ~6.00

====

- target.under.test: c-MET (Homo sapiens, UniProt P08581)
- Sequence (P08581 25-1390): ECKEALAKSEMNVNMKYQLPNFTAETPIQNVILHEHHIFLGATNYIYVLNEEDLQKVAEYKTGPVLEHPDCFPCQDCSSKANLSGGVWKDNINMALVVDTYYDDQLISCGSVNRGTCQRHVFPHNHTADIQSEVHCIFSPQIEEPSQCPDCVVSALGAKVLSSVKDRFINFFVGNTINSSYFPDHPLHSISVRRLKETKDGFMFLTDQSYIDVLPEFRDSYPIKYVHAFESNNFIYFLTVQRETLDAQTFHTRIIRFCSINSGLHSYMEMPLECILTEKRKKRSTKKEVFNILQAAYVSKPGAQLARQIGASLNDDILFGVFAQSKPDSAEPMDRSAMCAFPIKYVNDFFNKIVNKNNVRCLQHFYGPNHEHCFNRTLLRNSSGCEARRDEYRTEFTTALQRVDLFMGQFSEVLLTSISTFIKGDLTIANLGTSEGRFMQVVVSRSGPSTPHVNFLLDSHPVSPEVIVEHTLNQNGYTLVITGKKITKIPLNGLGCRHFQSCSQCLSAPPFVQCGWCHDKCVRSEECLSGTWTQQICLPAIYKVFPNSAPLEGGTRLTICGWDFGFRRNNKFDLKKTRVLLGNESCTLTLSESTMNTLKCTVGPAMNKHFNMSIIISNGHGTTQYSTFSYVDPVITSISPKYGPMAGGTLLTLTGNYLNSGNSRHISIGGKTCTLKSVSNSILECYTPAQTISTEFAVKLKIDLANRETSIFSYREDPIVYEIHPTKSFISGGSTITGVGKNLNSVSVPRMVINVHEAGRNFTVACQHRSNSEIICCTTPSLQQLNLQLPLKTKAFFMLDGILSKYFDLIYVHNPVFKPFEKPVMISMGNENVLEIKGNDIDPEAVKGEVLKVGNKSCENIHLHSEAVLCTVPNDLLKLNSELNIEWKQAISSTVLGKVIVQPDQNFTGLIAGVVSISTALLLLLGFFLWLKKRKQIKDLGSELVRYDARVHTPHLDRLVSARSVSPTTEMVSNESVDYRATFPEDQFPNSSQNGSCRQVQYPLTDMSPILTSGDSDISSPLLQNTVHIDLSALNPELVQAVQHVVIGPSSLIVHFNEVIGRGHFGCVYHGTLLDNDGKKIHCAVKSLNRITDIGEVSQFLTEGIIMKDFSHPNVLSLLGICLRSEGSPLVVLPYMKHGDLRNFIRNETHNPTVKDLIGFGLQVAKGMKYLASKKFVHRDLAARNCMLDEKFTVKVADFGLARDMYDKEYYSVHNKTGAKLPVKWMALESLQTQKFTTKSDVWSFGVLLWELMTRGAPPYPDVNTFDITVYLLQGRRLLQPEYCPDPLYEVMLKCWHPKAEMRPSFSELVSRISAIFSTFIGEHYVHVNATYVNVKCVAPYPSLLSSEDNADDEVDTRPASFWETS
- procedure.summary: HGF induced c-MET phosphorylation
- Format: cell-based
assay.endpoint: IC50

Which IC50 value belongs to O=C1NC(=O)[C@@H](c2cn3c4c(cccc24)CCC3)[C@@H]1c1c[nH]c2ccccc12 [Tivantinib] ? > 1000 nM
